Data origin: patent US20250368648A1

System: MOLM14 (D835Y) cells
Test: Combination drug screening, Cell Titer Glo, MOLM14 (D835Y) cells;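 further: MOLM14 cells with FLT3 ITD plus D835Y, 500 per well in 1536-well plates, 10-point dose ranges, luminescent viability after 48 h, negative Excess HSA indicates synergy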
Conditions: combination therapy of emavusertib (CA-4948) (a FLT3/IRAK4 inhibitor) and the named additional compound; MOLM14(D835Y) cells; 110 × 10 dataset
Entry flag: met if Sum Excess HSA Score reaches -300; not met if it does not.

Example cases with answers are listed next.
• Nc1cccc2c1CN(C1CCC(=O)NC1=O)C2=O (stereo not drawn) [Lenalidomide] = met
• CC(=O)c1c(C)c2cnc(Nc3ccc(N4CCNCC4)cn3)nc2n(C2CCCC2)c1=O = not met
• NC1(C(=O)N[C@@H](CCO)c2ccc(Cl)cc2)CCN(c2nc[nH]c3nccc2-3)CC1 = not met
• CC1(C)CCC(CN2CCN(c3ccc(C(=O)NS(=O)(=O)c4ccc(NCC5CCOCC5)c([N+](=O)[O-])c4)c(Oc4cnc5[nH]ccc5c4)c3)CC2)=C(c2ccc(Cl)cc2)C1 = not met
• C[C@]12C=CC(=O)C=C1CC[C@@H]1[C@@H]2[C@@H](O)C[C@@]2(C)[C@H]1CC[C@]2(O)C(=O)CO = met
• COc1cc(F)ccc1-c1cc(Nc2cc(CS(C)(=N)=O)ccn2)ncc1F (single isomer, unassigned; (+)) [(+)-BAY-1251152, BAY1251152] = met
• N#Cc1ccnc(N2C(=O)CC[C@H]2C(=O)N(c2cncc(F)c2)[C@H](C(=O)NC2CC(F)(F)C2)c2ccccc2Cl)c1 = met
• C[C@@H]1OCC2(CCN(c3cnc(Sc4ccnc(N)c4Cl)c(N)n3)CC2)[C@@H]1N = not met
• CCN(C(=O)c1cc(F)ccc1Oc1cncnc1N1CC2(CCN(C[C@H]3CC[C@H](NS(=O)(=O)CC)CC3)CC2)C1)C(C)C = not met
• CC(C)[C@@H](CS(=O)(=O)C(C)C)N1C(=O)[C@@](C)(CC(=O)O)C[C@H](c2cccc(Cl)c2)[C@H]1c1ccc(Cl)cc1 = not met

Task item: Quick check: does CC(C)Nc1cc(-c2c[nH]c(C(=O)N[C@H](CO)c3cccc(Cl)c3)c2)c(Cl)cn1 have Sum Excess HSA Score greater than or equal to -300?
Reply: not met

Task item: Answer whether Sum Excess HSA Score of COCC1(CO)C(=O)C2CCN1CC2 (stereo not drawn) [Eprenetapopt/APR-246, APR-246 (Eprenetapopt)] is greater than or equal to -300.
Reply: met

---

Molecular target: IRAK4 (Homo sapiens, UniProt Q9NWZ3)
Sequence (Q9NWZ3 1-460): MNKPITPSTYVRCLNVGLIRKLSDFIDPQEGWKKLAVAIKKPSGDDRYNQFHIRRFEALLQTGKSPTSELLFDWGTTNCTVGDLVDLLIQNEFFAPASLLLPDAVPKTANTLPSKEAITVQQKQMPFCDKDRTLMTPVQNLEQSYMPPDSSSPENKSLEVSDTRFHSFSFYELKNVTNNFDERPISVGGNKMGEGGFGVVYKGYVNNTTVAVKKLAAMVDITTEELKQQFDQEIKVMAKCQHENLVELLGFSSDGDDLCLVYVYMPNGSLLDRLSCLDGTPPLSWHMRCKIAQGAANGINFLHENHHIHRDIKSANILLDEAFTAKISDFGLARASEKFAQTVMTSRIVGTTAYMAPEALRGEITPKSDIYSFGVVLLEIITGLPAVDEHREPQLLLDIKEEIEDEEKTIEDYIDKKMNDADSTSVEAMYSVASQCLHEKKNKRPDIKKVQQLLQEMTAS
Experiment: RBC HotSpot Kinase Assay, IRAK4
Format: biochemical
Parameters: purchased RBC (Reaction Biology) HotSpot assay
Conditions: HotSpot functional assay, isolated kinase enzyme, 33P-ATP
Description: This assay uses the isolated kinase enzyme. This assay is very useful for determining competition of the inhibitor for ATP and/or substrates and for measuring the kinetics of enzyme inhibition. […] Unlike kinase binding assays that measure competition for ATP, the HotSpot Kinase Assay is a functional assay that measures catalytic activity; as such it measures relative functional potency regardless of the mechanism of enzyme inhibition. […]
Each entry below carries its recorded pIC50.
Would you please state pIC50, meaning minus log10 of the concentration in mol/L, as a bare number?

Examples with their reported pIC50 follow.
- COc1cc2ncc(-c3nc(N[C@@H]4CCCNC4)c(F)cc3F)n2nc1N1CCCS1(=O)=O [Compound 68a]: 8.15
- COc1cc2ncc(-c3cc(-c4ccccc4)cc(N[C@@H]4CCCNC4)n3)n2nc1C1CC1 [Compound 55a]: 5.39
- Fc1cc(F)c(-c2cnc3cc(OCC(F)F)cnn23)nc1N[C@H]1CNCC[C@@H]1F [Compound 84a]: 8.40

Task item: Supply reported pIC50 belonging to this compound: COc1ccc(N[C@H]2CNCC[C@@H]2F)nc1-c1cnc2cc(OC)c(C3CC3)nn12 [Compound 37a]
Reply: 6.61

Task item: Look up pIC50 of COc1ccc(N[C@H]2CNC[C@@H]2F)nc1-c1cnc2cc(OC)c(C3CC3)nn12 [Compound 36a] and report it.
Reply: 6.47

Task item: Provide one value: measured pIC50 of COc1cc2ncc(-c3ccc(F)c(N[C@H]4CNCC[C@@H]4F)n3)n2nc1C1CC1 [Compound 48a]
Reply: 9.00

---

Catalogue of IC50 readings, one per entry.
Target: FLT3 (Homo sapiens)
Sequence (P36888 27-993): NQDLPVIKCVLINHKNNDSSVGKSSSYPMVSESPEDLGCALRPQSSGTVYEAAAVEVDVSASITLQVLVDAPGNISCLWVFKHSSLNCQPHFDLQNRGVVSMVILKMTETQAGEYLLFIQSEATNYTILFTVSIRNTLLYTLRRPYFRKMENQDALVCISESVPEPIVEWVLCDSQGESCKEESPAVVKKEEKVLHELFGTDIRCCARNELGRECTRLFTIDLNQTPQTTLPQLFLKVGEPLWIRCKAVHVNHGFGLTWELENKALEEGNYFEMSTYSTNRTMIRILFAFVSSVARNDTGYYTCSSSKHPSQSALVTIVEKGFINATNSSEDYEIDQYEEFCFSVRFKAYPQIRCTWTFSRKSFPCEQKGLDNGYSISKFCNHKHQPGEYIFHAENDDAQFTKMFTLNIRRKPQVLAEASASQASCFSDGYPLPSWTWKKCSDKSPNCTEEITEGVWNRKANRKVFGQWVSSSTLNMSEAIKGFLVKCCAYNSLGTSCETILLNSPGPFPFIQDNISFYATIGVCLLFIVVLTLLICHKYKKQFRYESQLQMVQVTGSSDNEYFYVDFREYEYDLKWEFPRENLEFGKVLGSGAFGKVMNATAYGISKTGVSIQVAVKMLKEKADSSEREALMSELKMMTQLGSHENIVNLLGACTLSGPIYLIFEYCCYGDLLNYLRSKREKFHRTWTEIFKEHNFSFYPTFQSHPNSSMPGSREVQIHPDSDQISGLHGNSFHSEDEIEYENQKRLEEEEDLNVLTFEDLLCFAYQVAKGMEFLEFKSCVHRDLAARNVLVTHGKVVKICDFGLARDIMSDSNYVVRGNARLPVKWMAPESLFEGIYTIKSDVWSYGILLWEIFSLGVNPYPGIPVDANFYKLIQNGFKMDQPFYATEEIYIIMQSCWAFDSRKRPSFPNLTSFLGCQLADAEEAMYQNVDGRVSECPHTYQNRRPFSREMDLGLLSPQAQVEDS
Experiment: RBC HotSpot Kinase Assay, FLT3
Assay type: biochemical
Set-up: purchased RBC (Reaction Biology) HotSpot assay
Conditions: HotSpot functional assay, isolated kinase enzyme, 33P-ATP
Record the value in nM, omitting the unit from your answer.

Solved cases below.
• COc1cc2ncc(-c3cccc(N[C@H]4CNCC[C@@H]4F)n3)n2nc1N1CCCC1=O [Compound 26a] = 0.9
• COc1cc2ncc(-c3cc(C)cc(N[C@H]4CNCC[C@@H]4F)n3)n2nc1C1CC1 [Compound 52a] = 1
• COc1cc2ncc(-c3cc(Oc4ccccc4)cc(N[C@H]4CNCC[C@@H]4F)n3)n2nc1C1CC1 [Compound 61a] = 94
• COc1cc2ncc(-c3ccc(F)c(N[C@@H]4CCCNC4)n3)n2nc1C(C)(C)O = 9
• COc1cc2ncc(-c3ccc(F)c(N[C@H]4CNCC[C@@H]4F)n3)n2nc1C(C)(C)O = 3

Task item: Please supply the value of reported IC50 for the item COc1cc2ncc(-c3cc(C)cc(N[C@H]4CNC[C@@H]4F)n3)n2nc1C1CC1 [Compound 50a]
Reply: 2

Task item: Indicate its recorded IC50; the molecule in question is COc1cc2ncc(-c3ccc(C)c(N[C@H]4CNCC[C@@H]4F)n3)n2nc1C1CC1 [Compound 38a]
Reply: 50

Task item: Complete the entry with IC50 for COc1cc2ncc(-c3nc(N[C@@H]4CCCNC4)c(C)cc3C)n2nc1C1CC1 [Compound 62a]
Reply: 1420

Task item: Recall and state the measured IC50 for COc1cc2ncc(-c3cc(C4CC4)cc(N[C@H]4CNCC[C@@H]4F)n3)n2nc1C1CC1 [Compound 56a] .
Reply: 2
